target: RelA (Escherichia coli); construct: untagged native full-length RelA; assay: 3H-ppGpp synthesis assay (TLC) with purified RelA, pppGpp titration (activation), RelA alone or with starved ribosomal complexes
Sequence (P0AG20 whole entry): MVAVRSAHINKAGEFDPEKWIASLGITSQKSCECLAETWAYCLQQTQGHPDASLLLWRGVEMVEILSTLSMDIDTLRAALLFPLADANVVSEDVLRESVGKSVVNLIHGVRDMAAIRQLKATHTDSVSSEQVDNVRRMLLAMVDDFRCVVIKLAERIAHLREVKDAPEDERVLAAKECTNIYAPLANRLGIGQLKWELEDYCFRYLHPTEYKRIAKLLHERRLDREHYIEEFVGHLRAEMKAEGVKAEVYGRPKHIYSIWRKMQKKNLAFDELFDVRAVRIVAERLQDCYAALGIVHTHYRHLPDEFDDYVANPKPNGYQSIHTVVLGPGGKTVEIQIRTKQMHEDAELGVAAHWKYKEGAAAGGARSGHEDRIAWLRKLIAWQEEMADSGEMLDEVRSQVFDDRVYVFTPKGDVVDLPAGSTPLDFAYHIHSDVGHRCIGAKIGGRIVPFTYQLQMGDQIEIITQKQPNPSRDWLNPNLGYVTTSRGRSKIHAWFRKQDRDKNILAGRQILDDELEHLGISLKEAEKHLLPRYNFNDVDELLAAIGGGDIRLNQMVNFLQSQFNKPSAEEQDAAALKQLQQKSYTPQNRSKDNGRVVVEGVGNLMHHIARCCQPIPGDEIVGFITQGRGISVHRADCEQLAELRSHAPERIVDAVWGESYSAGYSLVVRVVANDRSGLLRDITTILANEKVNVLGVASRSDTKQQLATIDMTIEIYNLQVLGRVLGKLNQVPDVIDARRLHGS
pEC50: −log10 of the molar value.
measured_metric: pEC50

QUERY: Supply pEC50 value. Item: `Nc1nc2c(ncn2[C@@H]2O[C@H](COP(=O)(O)OP(=O)(O)OP(=O)(O)O)[C@@H](OP(=O)(O)OP(=O)(O)O)[C@H]2O)c(=O)[nH]1`
RESULT: 6.22 to 6.30
